system.tested: rhesus GCGR (Macaca mulatta)
Sequence (A0A1D5QZY8 27-491): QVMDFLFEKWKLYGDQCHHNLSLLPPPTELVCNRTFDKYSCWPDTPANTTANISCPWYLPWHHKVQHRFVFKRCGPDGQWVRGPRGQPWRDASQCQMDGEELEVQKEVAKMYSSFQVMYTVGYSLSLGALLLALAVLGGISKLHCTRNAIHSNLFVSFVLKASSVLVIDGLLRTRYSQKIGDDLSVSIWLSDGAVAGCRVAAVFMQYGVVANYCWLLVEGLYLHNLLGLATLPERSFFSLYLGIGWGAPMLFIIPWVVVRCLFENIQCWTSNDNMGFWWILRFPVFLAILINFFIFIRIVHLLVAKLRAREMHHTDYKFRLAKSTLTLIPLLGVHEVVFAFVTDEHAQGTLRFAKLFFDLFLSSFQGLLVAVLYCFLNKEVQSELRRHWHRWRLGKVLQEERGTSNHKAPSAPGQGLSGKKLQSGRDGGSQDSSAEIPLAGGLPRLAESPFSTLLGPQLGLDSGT
run.description: Inhibition of glucagon-stimulated cAMP production in CHO cells expressing rhesus GCGR
quantity.kind: IC50 (nM)
Numbers only, in nM.

Give the reported value of IC50 for this record: "COc1ccc2cc(-c3cc(-c4cc(C(F)(F)F)ccc4F)nn3[C@@H](C)c3ccc(C(=O)NCCC(=O)O)cc3)ccc2c1"
15

###

run.description: in vivo
settings: hGCGR.ob/ob, mouse, 3 mg/kg
quantity.kind: concentration at 3 h (nM)
Numbers only, in nM.

Look up concentration at 3 h of "COc1ccc2cc(-c3cc(-c4cc(C(F)(F)F)ccc4F)nn3[C@@H](C)c3ccc(C(=O)NCCC(=O)O)cc3)ccc2c1" and report it.
920

The measured values listed here are drawn from paper PMC3501516.
